- System: KRAS-mutant PDC multicell tumor spheroid viability;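 further: viability read after seven days of drug exposure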
- assayName: Anticancer human tumor 521955-158-R2-J5-PDC patient-derived pancreatic carcinoma cell line growth inhibition [KRAS2]
- statedConditions: second compound 1 µM; first compound 0.00316 µM; hits give low values

- molecule: "CCN1CCN(Cc2ccc(Nc3ncc(F)c(-c4cc(F)c5nc(C)n(C(C)C)c5c4)n3)nc2)CC1 + C=CC(=O)N1CCN(c2nc(=O)n(-c3c(C)ccnc3C(C)C)c3nc(-c4c(O)cccc4F)c(F)cc23)C(C)C1"
  viability, T/C: "112%"
- molecule: "CC(C)n1nc(-c2ccc3oc(N)nc3c2)c2c(N)ncnc21 + CNCc1ccccc1-c1csc(C(C)Nc2nc(C)nc3cc(OC)c(OC)cc23)c1"
  viability, T/C: "62.2%"
- molecule: "CN(C)C/C=C/C(=O)Nc1cc2c(Nc3ccc(F)c(Cl)c3)ncnc2cc1O[C@H]1CCOC1 + CC1OCC2(CCN(c3cnc(Sc4ccnc(N)c4Cl)c(N)n3)CC2)C1N"
  viability, T/C: "85.3%"
- molecule: "CN(C)C/C=C/C(=O)Nc1cc2c(Nc3ccc(F)c(Cl)c3)ncnc2cc1O[C@H]1CCOC1 + C=CC(=O)N1CCN(c2nc(=O)n(-c3c(C)ccnc3C(C)C)c3nc(-c4c(O)cccc4F)c(F)cc23)C(C)C1"
  viability, T/C: "99.8%"
- molecule: "CC(C)n1nc(-c2ccc3oc(N)nc3c2)c2c(N)ncnc21 + COc1cc2nc(C)nc(NC(C)c3cc(N)cc(C(F)(F)F)c3)c2cc1OC1CCOC1"
  viability, T/C: "57.1%"
- molecule: "CCN1CCN(Cc2ccc(Nc3ncc(F)c(-c4cc(F)c5nc(C)n(C(C)C)c5c4)n3)nc2)CC1 + C=CC(=O)N1CCN(c2nc(OCC3CCCN3C)nc3c2CCN(c2cccc4cccc(C)c24)C3)CC1CC#N"
  viability, T/C: "89.3%"
- molecule: "CCN1CCN(Cc2ccc(Nc3ncc(F)c(-c4cc(F)c5nc(C)n(C(C)C)c5c4)n3)nc2)CC1 + COc1cc2nc(C)nc(NC(C)c3cc(N)cc(C(F)(F)F)c3)c2cc1OC1CCOC1"
  viability, T/C: "93.1%"
- molecule: "CN(C)C/C=C/C(=O)Nc1cc2c(Nc3ccc(F)c(Cl)c3)ncnc2cc1O[C@H]1CCOC1 + COc1cc2nc(C)nc(NC(C)c3cc(N)cc(C(F)(F)F)c3)c2cc1OC1CCOC1"
  viability, T/C: "82.6%"
- molecule: "Cn1ncnc1[C@H]1c2n[nH]c(=O)c3cc(F)cc(c23)N[C@@H]1c1ccc(F)cc1 + C=CC(=O)N1CCN(c2nc(=O)n(-c3c(C)ccnc3C(C)C)c3nc(-c4c(O)cccc4F)c(F)cc23)C(C)C1"
  viability, T/C: "96.6%"
- molecule: "CC(=O)Nc1cccc(-n2c(=O)n(C3CC3)c(=O)c3c(Nc4ccc(I)cc4F)n(C)c(=O)c(C)c32)c1 + CC1OCC2(CCN(c3cnc(Sc4ccnc(N)c4Cl)c(N)n3)CC2)C1N"
  viability, T/C: "24.2%"
- molecule: "CC(=O)Nc1cccc(-n2c(=O)n(C3CC3)c(=O)c3c(Nc4ccc(I)cc4F)n(C)c(=O)c(C)c32)c1 + CNCc1ccccc1-c1csc(C(C)Nc2nc(C)nc3cc(OC)c(OC)cc23)c1"
  viability, T/C: "24.5%"
- molecule: "Cn1ncnc1[C@H]1c2n[nH]c(=O)c3cc(F)cc(c23)N[C@@H]1c1ccc(F)cc1 + C=CC(=O)N1CCN(c2nc(OCC3CCCN3C)nc3c2CCN(c2cccc4cccc(C)c24)C3)CC1CC#N"
  viability, T/C: "78.5%"
- molecule: "CN(C)C/C=C/C(=O)Nc1cc2c(Nc3ccc(F)c(Cl)c3)ncnc2cc1O[C@H]1CCOC1 + C=CC(=O)N1CCN(c2nc(OCC3CCCN3C)nc3c2CCN(c2cccc4cccc(C)c24)C3)CC1CC#N"
  viability, T/C: "70.4%"
